These measurements were taken from the supplement of paper PMC9732359.

# Measurement Notes: protein stability index of a GFP-peptide fusion (yeast GPS) (PSI 1-4); higher = more stable; sorted into four equal gates, so the index is relative within each strain
# Conditions Used: pdr5∆
Assign class 1 to entries whose protein stability index meets or exceeds 3; assign class 0 to the rest.

- Residue String: "WDLVDERTKQRTAKAYL [PRP8]"
  Label: "class 1"
- Residue String: "TRVEGSGGGDSEVQRTM [RPT6]"
  Label: "class 0"
- Residue String: "HIPRLIPKQLLDDEKIF [YJL039C/NUP192]"
  Label: "class 0"
- Residue String: "TVYISSIALLKMLKHGR [RPN11]"
  Label: "class 0"
- Residue String: "KNEKLKFQETLLRQKIE [ISW2]"
  Label: "class 0"
- Residue String: "RAHGRINKYESSPSHIE [RPL17A]"
  Label: "class 1"
- Residue String: "ALSAYHKVQTKLTRELE [RPS7B]"
  Label: "class 0"
- Residue String: "TPSTSSNGEFIPHIFYS [CSE2]"
  Label: "class 0"
- Residue String: "CANKYMTTVSGRDAFHL [RPL10]"
  Label: "class 0"
- Residue String: "PIDNNIIFASTKLGFTF [SNU114]"
  Label: "class 0"
- Residue String: "LGHKELKVRKGHIAKLM [RPB2]"
  Label: "class 0"
- Residue String: "LEGETDPLRIAMKELAE [RPO26]"
  Label: "class 1"
- Residue String: "IDLDHKRFLILQGEVEN [SMC4]"
  Label: "class 0"
- Residue String: "NEDLEDGHYIEENSQGN [REC8]"
  Label: "class 1"
- Residue String: "KNQLRDWIRFVSIRQNQ [RPL22B]"
  Label: "class 0"
- Residue String: "PSGAKKVISSDARGVIG [RPL2A]"
  Label: "class 1"
- Residue String: "FLIIVPKSTLDNWRREF [ISW2]"
  Label: "class 0"
- Residue String: "QAAGGLSIRLTNQLKSL [RPN8]"
  Label: "class 0"
- Residue String: "AVSTIASISLAIGYPTL [RPP0]"
  Label: "class 0"
- Residue String: "PDNSIFGDTKSESKQLG [SWI3]"
  Label: "class 1"
- Residue String: "ATQMTLNTFHFAGVASK [RPO21]"
  Label: "class 0"
- Residue String: "LTYLYEMKNIRGPYLVI [SNF2]"
  Label: "class 0"
- Residue String: "LGWIHTQTEELKFMAAS [PRP8]"
  Label: "class 0"
- Residue String: "VRAEELNISGEFFRNKL [RPL16A]"
  Label: "class 1"
- Residue String: "SYSPTSPSYSPTSPSYS [RPO21]"
  Label: "class 0"
- Residue String: "QKIMILQRTILNRIINH [RGR1]"
  Label: "class 0"
- Residue String: "MKAVGEYMKRHPTTIES [SEC65]"
  Label: "class 0"
- Residue String: "EYLFKPQLISDKFSPED [ARP7]"
  Label: "class 0"
- Residue String: "KQDCVDWFTYSYFYRRI [BRR2]"
  Label: "class 0"
- Residue String: "KAKYNTPKYRLVVRFTN [RPL5]"
  Label: "class 0"
- Residue String: "KTTNTTPSFSFGAKSDE [YJL041W/NSP1]"
  Label: "class 1"
- Residue String: "QQPNPLQDLISVYGLDD [ROX3]"
  Label: "class 0"
- Residue String: "EEAYDNPHDTLNRIKKY [PRP8]"
  Label: "class 1"
- Residue String: "QQQTNALNGIDINTVNT [GRR1]"
  Label: "class 1"
- Residue String: "ITIFSPEGRLYQVEYAF [SCL1]"
  Label: "class 0"
- Residue String: "HVINVGKTWEKLVLAAR [RPS0A]"
  Label: "class 1"
- Residue String: "ESTTEATGNESQDATKV [YLR335W/NUP2]"
  Label: "class 1"
- Residue String: "KRSMDAEQLGHASKRHK [RPP1]"
  Label: "class 0"
- Residue String: "LPEQLKSGKFCSHCGCV [SNM1]"
  Label: "class 1"
- Residue String: "KYIGEGSRMVRELFVMA [RPT6]"
  Label: "class 0"
- Residue String: "TQTYMQMIELNRQICLV [GRR1]"
  Label: "class 0"
- Residue String: "QFNATINPESREIVMPA [ITC1]"
  Label: "class 0"
- Residue String: "SLEDKILRMGAFRTIES [RRI1]"
  Label: "class 0"
- Residue String: "NRTLYELADLPKLKRIG [GRR1]"
  Label: "class 0"
- Residue String: "KNLQRESCEDILDLKEF [RTT102]"
  Label: "class 1"
- Residue String: "AMNDKDLTMGQVGERIK [RPO21]"
  Label: "class 1"
- Residue String: "MMCDFGTGNNNKLNFIV [DIB1]"
  Label: "class 0"
- Residue String: "SFDFGNENEDEDEGTLN [ARP9]"
  Label: "class 1"
- Residue String: "VKIHSQESLLSRTFDKY [SRP72]"
  Label: "class 0"
- Residue String: "LFYFDSSFRPCPLSQQF [BRR2]"
  Label: "class 0"
- Residue String: "GLAPDARVLSNYLRQQC [PRE5]"
  Label: "class 0"

----------
Reported protein stability index values are given for each entry in this list.
# Measurement Notes: protein stability index of a GFP-peptide fusion (yeast GPS) (PSI 1-4); higher = more stable; sorted into four equal gates, so the index is relative within each strain
# Conditions Used: san1∆
Value Kind: protein stability index

- Residue String: "VILRKISMLVTQLQRGG [CSI1]"
  Value Kind: "protein stability index"
  Observed: 1.55
- Residue String: "YRRALQSSESFDDSDIT [YML103C/NUP188]"
  Value Kind: "protein stability index"
  Observed: 2.16
- Residue String: "YTANTSAQSIASAKSVR [YAR002W/NUP60]"
  Value Kind: "protein stability index"
  Observed: 2.65
- Residue String: "TGKFVLQGQMEKIMILL [CSN12]"
  Value Kind: "protein stability index"
  Observed: 1.31
- Residue String: "LAEIKKTPLLKQYLSAS [RPL6B]"
  Value Kind: "protein stability index"
  Observed: 1.24
- Residue String: "QKRQLHDISKTETSNED [SNU114]"
  Value Kind: "protein stability index"
  Observed: 2.98
- Residue String: "NLSLYEATAASHERFFL [CSN12]"
  Value Kind: "protein stability index"
  Observed: 2.08
- Residue String: "WNVEKFKKDFEVNISSL [RPC40]"
  Value Kind: "protein stability index"
  Observed: 2.6
- Residue String: "RPEQLSNIIHDESDTIS [SNF6]"
  Value Kind: "protein stability index"
  Observed: 2.02
- Residue String: "SIGSIYQWNLDGLQQLD [RPN1]"
  Value Kind: "protein stability index"
  Observed: 1.93
- Residue String: "MAPLSLNFKDDKKYKGL [REC8]"
  Value Kind: "protein stability index"
  Observed: 2.47
- Residue String: "TVQSERAFQKQPHIFNN [RPS11A]"
  Value Kind: "protein stability index"
  Observed: 2.53
- Residue String: "VLYYRDARSSRNFSLAI [PRE4]"
  Value Kind: "protein stability index"
  Observed: 1.99
- Residue String: "SQFINDHILFTKTFIFI [SRB8]"
  Value Kind: "protein stability index"
  Observed: 1.47
- Residue String: "LPKVRYNVEKVKRLMDF [NSL1]"
  Value Kind: "protein stability index"
  Observed: 1.96
- Residue String: "FTVDKKIAERSLLLKNY [SKP1]"
  Value Kind: "protein stability index"
  Observed: 2.92
- Residue String: "SEVLVDTLDSKSNGSSD [ISW2]"
  Value Kind: "protein stability index"
  Observed: 3.11
- Residue String: "KYRPETAAEKKERLTKE [RPL8A]"
  Value Kind: "protein stability index"
  Observed: 3.12
- Residue String: "NNNNNNNDDNGNNNNNN [MED2]"
  Value Kind: "protein stability index"
  Observed: 3.33
- Residue String: "GSKLEDMSKILVDQGFN [RET1]"
  Value Kind: "protein stability index"
  Observed: 3.31
- Residue String: "SKIIVFPRDGKAPEAEQ [RPL13B]"
  Value Kind: "protein stability index"
  Observed: 3.18
- Residue String: "VIFVERATPATLTELKD [SRB2]"
  Value Kind: "protein stability index"
  Observed: 2.4
- Residue String: "GSEIAISSLGYRSHIFA [SWI3]"
  Value Kind: "protein stability index"
  Observed: 2.45
- Residue String: "FAIRDDRDHINPDDLMK [RPT4]"
  Value Kind: "protein stability index"
  Observed: 3.51
- Residue String: "KFQLKKVLCLAVAVGNV [RPL1A]"
  Value Kind: "protein stability index"
  Observed: 1.27
- Residue String: "ISEINFLHESSFDSIDH [CSI1]"
  Value Kind: "protein stability index"
  Observed: 2.51
- Residue String: "QVLFQGLIYSFNEENGE [POP1]"
  Value Kind: "protein stability index"
  Observed: 2.77
- Residue String: "GAETDELSMIMEHFSQQ [RPS12]"
  Value Kind: "protein stability index"
  Observed: 3.35
- Residue String: "YLAKELNLTGPKVPEDI [RPN1]"
  Value Kind: "protein stability index"
  Observed: 2.38
- Residue String: "VSKQLGNGLVDENKVEA [YAR002W/NUP60]"
  Value Kind: "protein stability index"
  Observed: 3.38
